TEST DETAILS: NCI Yeast Anticancer Drug Screen. Data for the mec2-1 strain (AID 157)
CONDITION PARAMETERS: S. cerevisiae mec2-1 strain, at 50.0 µM
Compounds without any hit were thinned out: in the full panel of roughly 79,000, 15% have a hit. Calls of active or inactive are those of the source. Rule as the data show it: active = growth inhibition above about 70%; inactive = the rest.
Outcome field: choose from active, inactive

For this compound, state the assay outcome: OCC(Br)CBr (stereo not drawn) inactive

For this compound, state the assay outcome: CNCCc1cccs1 inactive

For this compound, state the assay outcome: O=Cc1ccccc1O.O=Cc1ccccc1O.[Cu] active

For this compound, state the assay outcome: CCCCCCCBr inactive

For this compound, state the assay outcome: COC(=O)C(CCC(=O)O)NC(=O)OCc1ccccc1 (stereo not drawn) inactive

For this compound, state the assay outcome: N#CCc1ccc(O)cc1 inactive

For this compound, state the assay outcome: Oc1ccccc1I inactive

For this compound, state the assay outcome: c1cc[c]([Ge]([c]2ccccc2)[c]2ccccc2)cc1 inactive

For this compound, state the assay outcome: C=C(C(=C)P(=S)(C(C)C)C(C)C)P(=S)(C(C)C)C(C)C inactive

For this compound, state the assay outcome: CCOC(=O)C[Se]CC(=O)OCC inactive

For this compound, state the assay outcome: CCOP(=O)(O)OCC.[Y] inactive

For this compound, state the assay outcome: O=C(O)C(Cc1cnc[nH]1)N1C(=O)c2ccccc2C1=O (stereo not drawn) inactive

For this compound, state the assay outcome: Nc1ccc([N+](=O)[O-])cc1 inactive

For this compound, state the assay outcome: COc1cc2c3c(c1OC)Oc1ccc(cc1)CC1c4c(cc(OC)c(OC)c4Oc4ccc(cc4)CC3N(C)CC2)CCN1C (stereo not drawn) inactive

For this compound, state the assay outcome: CCCCC(CC)CC1C(=O)NC(=S)NC1=O (stereo not drawn) inactive

For this compound, state the assay outcome: O=C1NCN(c2ccccc2)C12CCN(CCCS(=O)(=O)c1ccccc1)CC2 inactive

For this compound, state the assay outcome: O=C/C=C/c1ccco1 inactive

For this compound, state the assay outcome: Cc1cc(NC(=O)CCc2ccc(N)cc2)ccc1S(=O)(=O)F active

For this compound, state the assay outcome: CCCC[N+]1(C)CCCC1c1cccnc1 (stereo not drawn) inactive

For this compound, state the assay outcome: O=S(=O)(O)c1ccc(Cl)cc1 inactive

For this compound, state the assay outcome: NC(=NC1CCCCCCCCCCC1)N[N+](=O)[O-] inactive

For this compound, state the assay outcome: O=c1n(Cc2ccccc2)c2ccccc2n1CC1CS1 (stereo not drawn) inactive

For this compound, state the assay outcome: CCCC(NC(=O)CCl)C(=O)O (stereo not drawn) inactive

For this compound, state the assay outcome: N#CC(C#N)=Cc1ccc(C=C(C#N)C#N)cc1 inactive

For this compound, state the assay outcome: Cc1cc(-c2ccccc2)cc(-c2ccccc2)[o+]1 inactive

For this compound, state the assay outcome: O.[Cr+3].[NH2-].[NH2-].[NH2-].[NH2-].[NH2-].[O-][Cl+3]([O-])([O-])O inactive

For this compound, state the assay outcome: O=C(NC(Cl)=C(Cl)Cl)P(=O)(c1ccccc1)c1ccccc1 inactive

For this compound, state the assay outcome: CCNP(=O)(OCC)OCC inactive

* * *

TEST DETAILS: NCI Yeast Anticancer Drug Screen. Data for the bub3 strain (AID 167)
CONDITION PARAMETERS: S. cerevisiae bub3 mutant strain, at 50.0 µM, hits give high values
Compounds without any hit were thinned out: in the full panel of roughly 79,000, 15% have a hit.
Answer each item with its documented growth inhibition.
Dear colleague, please return just the value in %, with no unit written.

Suppose we examine the compound CCOP12(OCC)NC(=O)OC1(C(F)(F)F)c1ccccc1O2 (configuration not stated) ; what growth inhibition value has been reported? -26.4

Suppose we examine the compound COc1cc(C=C2C(=O)NC(=O)NC2=O)ccc1O ; what growth inhibition value has been reported? -2

Suppose we examine the compound Cc1ccc(C)c(NP(=O)(Nc2cc(C)ccc2C)N(CCCl)CCCl)c1 ; what growth inhibition value has been reported? 9.8

Suppose we examine the compound C#CCOCC(O)C[As](=O)(O)c1cccc(Cl)c1 (configuration not stated) ; what growth inhibition value has been reported? 10.7

Suppose we examine the compound COP(=O)(OC)O/C(=C(/OP(=O)(OC)OC)c1ccccc1)c1ccccc1 ; what growth inhibition value has been reported? -1.35

Suppose we examine the compound CC(C)(N)Cc1ccc(N)cc1 ; what growth inhibition value has been reported? 2.5

Suppose we examine the compound c1cc(C2O[C@H]3CCCN3[C@@H]2c2ccncc2)ccn1 (some centres not stated) ; what growth inhibition value has been reported? -14.8

Suppose we examine the compound O=NNc1cccnc1 ; what growth inhibition value has been reported? -4.8

Suppose we examine the compound CCOP(=O)(CCN(C)C)OCC ; what growth inhibition value has been reported? -7.9

Suppose we examine the compound CC(=[N-])CC(C)=O.CC(=[N-])CC(C)=O.[Cu+2] ; what growth inhibition value has been reported? -4.4

Suppose we examine the compound CC[C@@H]1[C@H]2C[C@H]3[C@@H]4N(C)c5ccccc5[C@]45C[C@@H](C2[C@H]5O)N3[C@H]1O (some centres not stated) ; what growth inhibition value has been reported? -13.7

Suppose we examine the compound CC(Oc1ccc(-c2ccccc2)cc1)C(=O)O (configuration not stated) ; what growth inhibition value has been reported? -13.1

Where these numbers come from: PubChem BioAssay (NCI)
